# credit: PubChem BioAssay AID1963835

# viability, T/C per entry
- System: 699152-130-R-J1-PDC complex spheroid viability;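 further: spheroids exposed to agents for 7 days before viability reading; percent of DMSO vehicle control viability so 100% = vehicle and 0% = no viable signal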
- Test method notes: Anticancer human tumor 699152-130-R-J1-PDC patient-derived pancreatic carcinoma cell line growth inhibition [POLQ]
- Settings: second compound 0.1 µM; first compound 0.316 µM; hits give low values
- Experimental: Multicellular complex tumor spheroid response to Polymerase (POL) inhibitors (novobiocin, ART-558, RP6685) in combination with a variety of drugs and investigational agents in selected tumor cell lines The POL inhibitors (novobiocin, ART-558, and RP6685) were evaluated both individually and in combination with standard of care and investigational anticancer small molecules within a complex spheroid model of solid tumors. . […]

The examples below pair each entry with its known result.
| Compound | Study target | viability, T/C |
| --- | --- | --- |
| COc1cccc2c1C(=O)c1c(O)c3c(c(O)c1C2=O)CC(O)(C(=O)CO)CC3OC1CC(N)C(O)C(C)O1 (stereo not given) + Cc1cccc(N(C)C(=O)C2C(O)CCN2c2nc(C)cc(C(F)(F)F)c2C#N)c1 | 699152-130-R-J1-PDC complex spheroid viability | 47% |
| COc1ccc([C@@H](O)c2cc(-c3ncnc4cc(N5CCOCC5)ccc34)c(F)cc2Cl)nn1 + Nc1ccc(C#CCN(C(=O)Cc2ncc(C(F)(F)F)cc2C(F)(F)F)c2ccc(F)cc2)nn1 | 699152-130-R-J1-PDC complex spheroid viability | 91.1% |
| O=C(Nc1ccc(O)c(NS(=O)(=O)c2ccc(F)cc2)c1)c1ccc(-c2ccccc2)cc1 + Nc1ccc(C#CCN(C(=O)Cc2ncc(C(F)(F)F)cc2C(F)(F)F)c2ccc(F)cc2)nn1 | 699152-130-R-J1-PDC complex spheroid viability | 95.2% |

Look up and state reported viability, T/C for C#Cc1c(F)ccc2cc(O)cc(-c3ncc4c(N5CC6CCC(C5)N6)nc(OCC56CCCN5CC(F)C6)nc4c3F)c12 (stereo not given) + COC1C(OC(N)=O)C(O)C(Oc2ccc3c(O)c(NC(=O)c4ccc(O)c(CC=C(C)C)c4)c(=O)oc3c2C)OC1(C)C
17%

Look up and state reported viability, T/C for CCc1cc2c(N3CCc4c(cc(Cn5ccnc5)cc4-c4cn(C)nc4C(F)(F)F)C3=O)cc(C)nc2c(OC)n1 + Nc1ccc(C#CCN(C(=O)Cc2ncc(C(F)(F)F)cc2C(F)(F)F)c2ccc(F)cc2)nn1
96.9%

Look up and state reported viability, T/C for CCc1c2c(nc3ccc(O)cc13)-c1cc3c(c(=O)n1C2)COC(=O)[C@]3(O)CC + Cc1cccc(N(C)C(=O)C2C(O)CCN2c2nc(C)cc(C(F)(F)F)c2C#N)c1
26.1%

Look up and state reported viability, T/C for CNCc1ccc(-c2[nH]c3cc(F)cc4c3c2CCNC4=O)cc1 + Cc1cccc(N(C)C(=O)C2C(O)CCN2c2nc(C)cc(C(F)(F)F)c2C#N)c1
92.2%

Look up and state reported viability, T/C for CC1COCCN1c1cc(-c2ccnn2C)c2ccnc(-c3ccn[nH]3)c2n1 (stereo not given) + Cc1cccc(N(C)C(=O)C2C(O)CCN2c2nc(C)cc(C(F)(F)F)c2C#N)c1
75.2%

Look up and state reported viability, T/C for C=CC(=O)N1CCN(c2nc(=O)n(-c3c(C)ccnc3C(C)C)c3nc(-c4c(O)cccc4F)c(F)cc23)C(C)C1 (stereo not given) + Cc1cccc(N(C)C(=O)C2C(O)CCN2c2nc(C)cc(C(F)(F)F)c2C#N)c1
113%
